Data origin: ChEMBL document CHEMBL4257575

- experimental.system: Multidrug resistance-associated protein 1 (Homo sapiens, UniProt P33527)
- Sequence (P33527 whole entry): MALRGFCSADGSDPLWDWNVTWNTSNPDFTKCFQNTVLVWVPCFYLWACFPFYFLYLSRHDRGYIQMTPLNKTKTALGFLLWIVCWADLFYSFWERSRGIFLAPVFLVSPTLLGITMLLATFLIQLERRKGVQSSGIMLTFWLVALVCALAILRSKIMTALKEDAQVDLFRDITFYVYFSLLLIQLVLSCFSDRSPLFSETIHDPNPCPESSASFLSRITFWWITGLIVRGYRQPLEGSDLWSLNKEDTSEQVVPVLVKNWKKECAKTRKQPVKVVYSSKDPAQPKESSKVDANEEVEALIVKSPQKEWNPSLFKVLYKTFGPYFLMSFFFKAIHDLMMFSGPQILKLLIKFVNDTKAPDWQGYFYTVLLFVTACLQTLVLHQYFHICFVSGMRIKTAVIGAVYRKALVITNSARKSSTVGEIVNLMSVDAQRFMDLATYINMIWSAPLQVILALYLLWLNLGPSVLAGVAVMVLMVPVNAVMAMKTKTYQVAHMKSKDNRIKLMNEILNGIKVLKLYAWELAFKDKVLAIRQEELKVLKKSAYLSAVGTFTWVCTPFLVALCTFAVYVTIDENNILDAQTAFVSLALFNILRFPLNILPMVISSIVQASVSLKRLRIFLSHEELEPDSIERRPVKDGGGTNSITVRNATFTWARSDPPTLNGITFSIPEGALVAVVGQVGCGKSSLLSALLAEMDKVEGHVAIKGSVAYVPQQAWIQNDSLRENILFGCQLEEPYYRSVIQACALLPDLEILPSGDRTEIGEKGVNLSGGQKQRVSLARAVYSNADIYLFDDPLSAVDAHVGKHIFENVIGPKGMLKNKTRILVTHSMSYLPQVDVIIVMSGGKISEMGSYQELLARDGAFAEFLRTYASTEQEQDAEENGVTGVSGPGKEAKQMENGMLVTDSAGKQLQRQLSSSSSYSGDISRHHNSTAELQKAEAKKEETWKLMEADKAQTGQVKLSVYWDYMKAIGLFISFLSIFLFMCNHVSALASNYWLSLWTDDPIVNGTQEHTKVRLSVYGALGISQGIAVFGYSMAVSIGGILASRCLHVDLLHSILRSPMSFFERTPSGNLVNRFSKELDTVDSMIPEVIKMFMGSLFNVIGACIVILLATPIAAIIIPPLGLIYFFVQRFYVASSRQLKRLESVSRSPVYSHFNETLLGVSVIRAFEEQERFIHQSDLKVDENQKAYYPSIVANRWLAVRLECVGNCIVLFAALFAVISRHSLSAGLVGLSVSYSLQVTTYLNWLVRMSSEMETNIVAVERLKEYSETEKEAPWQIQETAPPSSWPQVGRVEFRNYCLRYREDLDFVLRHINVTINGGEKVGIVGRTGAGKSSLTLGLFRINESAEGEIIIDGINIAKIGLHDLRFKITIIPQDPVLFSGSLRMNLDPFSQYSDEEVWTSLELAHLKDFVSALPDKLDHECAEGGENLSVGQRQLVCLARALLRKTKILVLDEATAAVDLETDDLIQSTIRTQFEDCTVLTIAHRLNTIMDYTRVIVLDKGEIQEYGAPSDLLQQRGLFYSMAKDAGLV
- assay.notes: Inhibition of MRP1 in human 2008/MRP1 cells assessed as potentiation of doxorubicin-induced cytotoxicity by measuring cell survival at 1 uM after 5 days by MTS assay relative to control
- Type: cell-based
- condition.set: 120 h

- smi: "O=C(/C=C/c1ccc(OCCCCc2cn(CCOCCOc3ccc(-c4cc(=O)c5ccccc5o4)cc3)nn2)cc1)c1ccc(F)cc1O"
  Survival [%]: 66
- smi: "Cc1ccc2oc(-c3ccc(OCCCCc4cn(CCOCCOc5ccc6c(=O)cc(-c7ccccc7)oc6c5)nn4)cc3)cc(=O)c2c1"
  Survival [%]: 46
- smi: "CCc1ccc(O)c(C(=O)/C=C/c2ccc(OCCCCc3cn(CCOCCOc4ccc(-c5cc(=O)c6ccccc6o5)cc4)nn3)cc2)c1"
  Survival [%]: 66
- smi: "O=c1cc(-c2ccc(OCCCc3cn(CCOCCOCCOc4ccc(-c5oc6ccccc6c(=O)c5OCc5ccccc5)cc4)nn3)cc2)oc2ccccc12"
  Survival [%]: 62
- smi: "O=c1cc(-c2ccc(OCCOCCn3cc(CN(CCOc4ccc5c(=O)cc(-c6ccccc6)oc5c4)Cc4ccccc4)nn3)cc2)oc2ccccc12"
  Survival [%]: 29
- smi: "O=c1cc(-c2ccc(OCCOCCn3cc(COCCOc4ccc5c(=O)cc(-c6ccccc6)oc5c4)nn3)cc2)oc2ccccc12"
  Survival [%]: 46
- smi: "O=c1cc(-c2ccc(OCCOCCn3cc(CCCOc4ccc5c(=O)cc(-c6ccccc6)oc5c4)nn3)cc2)oc2ccccc12"
  Survival [%]: 30
